study-system: mHsp90ND (N-terminal domain of mouse Hsp90α) (Mus musculus, UniProt P07901)
Construct: Hsp90α (residues 9–225 Swiss Prot entry: P07901); His6 (N); made in house; host or cells: Escherichia coli BL21 (DE3) codon plus RIL
assay-procedure: Isothermal titration calorimetry (ITC)
Type: binding
conditions-used: ITC, 25 °C
Protocol: The PCR product was cloned into plasmid pET28a, which encodes a purification tag consisting of the amino acids His6 at the N-terminal of the protein. mHsp90ND was expressed in Escherichia coli (E. coli) BL21 (DE3) codon plus RIL (Stratagene) cell. The cells were lysed by sonication in 50 mM Tris-HCl (pH 7.4), 100 mM NaCl, 2 mM 2-mercaptoethanol, and 0.2 mM phenylmethylsulfonyl fluoride (PMSF). […]
Can you tell me ∆H for the items I'm about to list?
One number for each entry, in kcal/mol.

> print(dat)
                                   molecule  unit.spec  numeric.value
1  CC(C)(C)C1=NOC(Cn2cnc3c(Cl)nc(N)nc32)C1 (stereo not shown) [Compound 4b]   kcal/mol          -19.8
2  Cc1ccc(Cn2cnc3c(Cl)nc(N)nc32)cc1 [Compound 14]   kcal/mol          -17.8
3  CC(C)(C)c1cc(Cn2cnc3c(Cl)nc(N)nc32)on1 [Compound 6b]   kcal/mol          -14.5

Please examine the following record next.
Request the reported ∆H associated with CC(C)c1cc(Cn2cnc3c(Cl)nc(N)nc32)on1 [Compound 6c]
-15.8
